Test: Pharmacokinetics in mice (plasma and brain levels, LC-MS)
Type: in vivo
Conditions: male, C57BL/6J, po; mouse, P.O. 10 mg/kg, plasma
PARAMETER: Tmax (min)
Answers are plain numbers, in min.

Ask: Quick one: Tmax for "O=C(O)COCCN1CCN(C2=Nc3ccccc3Oc3ccc(Cl)cc32)CC1" ?
Result: 15

====

Assay: Pharmacokinetics in mice (plasma and brain levels, LC-MS)
Type: in vivo
Conditions: male, C57BL/6J, po; mouse, P.O. 10 mg/kg, plasma
PARAMETER: AUC(0-inf)
Enter the number, and then the unit.

Ask: Quick one: AUC(0-inf) for "O=C(O)COCCN1CCN(C2=Nc3ccccc3Oc3ccc(Cl)cc32)CC1" ?
Result: 4070 ng·h/mL

====

Assay: Pharmacokinetics in mice (plasma and brain levels, LC-MS)
Format: in vivo
Conditions: male, C57BL/6J, ip; mouse, I.P. 2.5 mg/kg, brain
PARAMETER: Tmax
Enter the number, and then the unit.

Ask: Quick one: Tmax for CN1CCN(C2=Nc3ccccc3Oc3ccc(Cl)cc32)CC1 [Loxapine, reference compound] ?
Result: 15 min

====

Assay: Pharmacokinetics in mice (plasma and brain levels, LC-MS)
Assay type: in vivo
Settings: male, C57BL/6J, ip; mouse, I.P. 10 mg/kg, brain
PARAMETER: Cmax (ng/mL)
Give bare numbers, in ng/mL.

Ask: Quick one: Cmax for "O=C(O)COCCN1CCN(C2=Nc3ccccc3Oc3ccc(Cl)cc32)CC1" ?
Result: 5490

====

Please go through the items and note down their log10 Ki.
Molecular target: human D3 receptor (Homo sapiens)
Sequence (P35462 whole entry): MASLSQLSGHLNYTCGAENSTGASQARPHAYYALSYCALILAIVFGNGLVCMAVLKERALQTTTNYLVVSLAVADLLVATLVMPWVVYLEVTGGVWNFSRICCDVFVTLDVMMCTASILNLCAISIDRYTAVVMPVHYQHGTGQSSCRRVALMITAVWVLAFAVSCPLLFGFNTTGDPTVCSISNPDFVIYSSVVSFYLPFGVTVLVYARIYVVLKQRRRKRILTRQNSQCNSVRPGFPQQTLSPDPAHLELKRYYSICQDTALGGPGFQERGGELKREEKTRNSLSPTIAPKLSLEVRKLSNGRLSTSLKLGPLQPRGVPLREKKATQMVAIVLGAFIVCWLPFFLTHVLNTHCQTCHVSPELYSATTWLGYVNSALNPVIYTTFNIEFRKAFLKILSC
Heads up: the numbers are on a log10 scale; they represent Ki in nM.

Solved cases (2 shown):
Ask: // map "CN1CCN(C2=Nc3ccccc3Oc3ccc(C(F)(F)F)cc32)CC1" to recorded log10 Ki (system: human D3 receptor (Homo sapiens))
Result: 1.09

Ask: Also "O=C(O)COCCN1CCN(C2=Nc3ccccc3Oc3ccc(C(F)(F)F)cc32)CC1" ?
Result: 1.61

Your task in this section: give log10 Ki for each listed record.
1. OCCOCCN1CCN(C2=Nc3ccccc3Sc3ccc(Cl)cc32)CC1
2. OCCN1CCN(C2=Nc3ccccc3Oc3ccc(Cl)cc32)CC1
3. O=C(O)COCCN1CCN(C2=Nc3ccccc3Oc3ccc(Cl)cc32)CC1
4. CN1CCN(C2=Nc3ccccc3Oc3ccc(Cl)cc32)CC1 [Loxapine, reference compound]

Result:
1: 1.80; 2: 2.25; 3: 3.55; 4: 2.05

====

Assay: Pharmacokinetics in mice (plasma and brain levels, LC-MS)
Assay type: in vivo
Details: male, C57BL/6J, ip; mouse, I.P. 2.5 mg/kg, plasma; read-out: t1/2
PARAMETER: half-life (h)
Numbers only, in h.

Ask: Quick one: half-life for CN1CCN(C2=Nc3ccccc3Oc3ccc(Cl)cc32)CC1 [Loxapine, reference compound] ?
Result: 1.03
